target: CDK2 (Homo sapiens, UniProt P24941); construct: host or cells: HEK293-CDK2-Hibit; test: HiBit Assay Protocol for CDK2 (HIBIT protein quantification, degradation); format: cell-based; conditions: HEK293-CDK2-Hibit cells, compound treatment for 6 hours, ABS DC50
Below is a list of entries, each paired with its recorded log10(DC50) value.
MEASURED_PARAMETER: log10(DC50) (log10 of the value in nM)

{"columns": ["COMPOUND", "MEASURED_PARAMETER", "RESULT_VALUE"],
 "data": [
  ["CC1CCCC1N1C(=O)C2(CC2)c2cnc(NC3CCN(S(=O)(=O)N4CC(N(C)C(=O)CCCCc5cccc6c5n(C)c(=O)n6C5CCC(=O)NC5=O)C4)CC3)nc21 (stereo not shown) [Compound 91]", "log10(DC50)", 0.78],
  ["C[C@@H]1CN(c2ccc3c(N4CCC(=O)NC4=O)nn(C)c3c2)CCN1[C@@H](C)c1cccc(S(=O)(=O)N2CC[C@H](Nc3ncc4c(n3)N([C@@H]3CCC[C@@H](O)C3)C(=O)C43CC3)[C@H](F)C2)c1 [Compound 192]", "log10(DC50)", 0.67],
  ["CC1CCCC1N1C(=O)C2(CC2)c2cnc(NC3CCN(S(=O)(=O)N4CC(N(C)C(=O)CCCCCCCCCc5cccc6c5n(C)c(=O)n6C5CCC(=O)NC5=O)C4)CC3)nc21 (stereo not shown) [Compound 49]", "log10(DC50)", 1.53],
  ["CC1CCCC1N1C(=O)C2(CC2)c2cnc(NC3CCN(S(=O)(=O)N4CCC5(CCCN5C(=O)CCCCc5cccc6c5n(C)c(=O)n6C5CCC(=O)NC5=O)C4)CC3)nc21 (stereo not shown) [Compound 94]", "log10(DC50)", 1.20],
  ["CC1CCCC1N1C(=O)C2(CC2)c2cnc(NC3CCN(S(=O)(=O)N4CCN(C(=O)CCCCCc5cccc6c5n(C)c(=O)n6C5CCC(=O)NC5=O)CC4)CC3)nc21 (stereo not shown) [Compound 38]", "log10(DC50)", 0.60],
  ["CC1CN(Cc2cccc(S(=O)(=O)N3CCC(Nc4ncc5c(n4)N([C@@H]4CCC[C@@H](O)C4)C(=O)C54CC4)CC3)c2)CCN1c1ccc2c(N3CCC(=O)NC3=O)nn(C)c2c1 (stereo partly shown) [Compound 185]", "log10(DC50)", 0.83],
  ["CC1CCCC1N1C(=O)C2(CC2)c2cnc(NC3CCN(S(=O)(=O)N4CC(N(C)C(=O)CCCc5ccc6c(c5)n(C)c(=O)n6C5CCC(=O)NC5=O)C4)CC3)nc21 (stereo not shown) [Compound 61]", "log10(DC50)", 0.48],
  ["CC1CCCC1N1C(=O)C2(CC2)c2cnc(NC3CCN(S(=O)(=O)N4CCN(C(=O)CCCCc5cccc6c5n(C)c(=O)n6C5CCC(=O)NC5=O)CC4)CC3)nc21 (stereo not shown) [Compound 8]", "log10(DC50)", 0.94],
  ["C[C@H](c1cccc(S(=O)(=O)N2CC[C@H](Nc3ncc4c(n3)N([C@@H]3CCC[C@@H](O)C3)C(=O)C43CC3)[C@H](F)C2)c1)N1CCN(c2ccc3c(N4CCC(=O)NC4=O)nn(C)c3c2)[C@@H](C)C1 [Compound 207]", "log10(DC50)", 0.54],
  ["CC1CCCC1N1C(=O)C2(CC2)c2cnc(NC3CCN(S(=O)(=O)N4CC5(CCCN(C(=O)CCc6cccc7c6n(C)c(=O)n7C6CCC(=O)NC6=O)C5)C4)CC3)nc21 (stereo not shown) [Compound 18]", "log10(DC50)", 1.08]
]}

* * *

target: CDK2 (Homo sapiens, UniProt P24941); construct: host or cells: HEK293-CDK2-Hibit; assay: HiBit Assay Protocol for CDK2 (HIBIT protein quantification, degradation); assay type: cell-based; settings: HEK293-CDK2-Hibit cells, compound treatment for 6 hours
Below is a list of entries, each paired with its recorded CDK2 HIBIT Protein Quantification Maximum value.
MEASURED_PARAMETER: CDK2 HIBIT Protein Quantification Maximum

{"columns": ["COMPOUND", "RESULT_VALUE"],
 "data": [
  ["Cn1c(=O)n(C2CCC(=O)NC2=O)c2cccc(C3CCN(CC4CCN(S(=O)(=O)c5ccc(Nc6ncc7c(n6)N([C@@H]6CCC[C@@H](O)C6)C(=O)C76CC6)cc5)CC4)CC3)c21 (stereo partly drawn)", "32%"],
  ["C[C@H]1CCC[C@H]1N1C(=O)C2(CC2)c2cnc(NC3CCN(S(=O)(=O)N(C)CCCN4CCC(c5cccc6c5n(C)c(=O)n6C5CCC(=O)NC5=O)CC4)CC3)nc21 (stereo partly drawn)", "79%"],
  ["CC1CCCC1N1C(=O)C2(CC2)c2cnc(NC3CCN(S(=O)(=O)N4CCCN(C(=O)CCCCc5cccc6c5n(C)c(=O)n6C5CCC(=O)NC5=O)CC4)CC3)nc21 (stereo not drawn)", "62%"]
]}

* * *

biological target: CDK2 (Homo sapiens, UniProt P24941); construct: host or cells: HEK293-CDK2-Hibit; assay: HiBit Assay Protocol for CDK2 (HIBIT protein quantification, degradation); format: cell-based; details: HEK293-CDK2-Hibit cells, compound treatment for 6 hours, ABS DC50
MEASURED_PARAMETER: DC50 (nM)

{"columns": ["COMPOUND", "RESULT_VALUE"],
 "data": [
  ["CC1CCCC1N1C(=O)C2(CC2)c2cnc(NC3CCN(S(=O)(=O)C4CCN(C(=O)CCCCCc5ccc6c(c5)n(C)c(=O)n6C5CCC(=O)NC5=O)C4)CC3)nc21 (stereo not drawn)", 8],
  ["Cn1c(=O)n(C2CCC(=O)NC2=O)c2cccc(C3CCN(Cc4cccc(S(=O)(=O)N5CCC(Nc6ncc7c(n6)N([C@@H]6CCC[C@@H](O)C6)C(=O)C76CC6)CC5)c4)CC3)c21 (stereo partly drawn)", 6],
  ["C[C@H](c1cccc(S(=O)(=O)N2CC[C@H](Nc3ncc4c(n3)N([C@@H]3CCC[C@@H](O)C3)C(=O)C43CC3)[C@H](F)C2)c1)N1CCC(c2ccc3c(N4CCC(=O)NC4=O)nn(C)c3c2)CC1", 2.48]
]}

* * *

target: CCNE1 (Homo sapiens); construct: host or cells: HEK293-CCNE1-Hibit; assay: HiBit Assay Protocol for CCNE1 (HIBIT protein quantification, degradation); format: cell-based; settings: HEK293-CCNE1-Hibit cells, compound treatment for 6 hours
Sequence (P24864 whole entry): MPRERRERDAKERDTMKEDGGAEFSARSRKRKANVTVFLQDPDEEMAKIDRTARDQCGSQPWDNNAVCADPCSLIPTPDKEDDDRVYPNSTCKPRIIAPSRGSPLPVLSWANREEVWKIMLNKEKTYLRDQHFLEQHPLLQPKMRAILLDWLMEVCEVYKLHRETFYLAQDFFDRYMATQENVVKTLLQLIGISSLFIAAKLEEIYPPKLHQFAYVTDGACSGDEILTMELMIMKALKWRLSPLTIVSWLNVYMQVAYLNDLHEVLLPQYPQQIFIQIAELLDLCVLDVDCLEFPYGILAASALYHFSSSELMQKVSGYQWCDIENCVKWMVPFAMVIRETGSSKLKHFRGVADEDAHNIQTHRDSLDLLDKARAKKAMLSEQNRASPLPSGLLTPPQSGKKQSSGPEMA
Sorting guide: entries reporting CCNE1 HIBIT Protein Quantification Maximum beneath 40% go in the Met pile, the rest go in the Not met pile.

{"columns": ["COMPOUND", "CLASS_NAME"],
 "data": [
  ["CC1CCCC1N1C(=O)C2(CC2)c2cnc(NC3CCN(S(=O)(=O)N4CC5C4CCN5C(=O)CCCc4ccc5c(c4)n(C)c(=O)n5C4CCC(=O)NC4=O)CC3)nc21 (stereo not shown)", "Met"],
  ["CC1CCCC1N1C(=O)C2(CC2)c2cnc(NC3CCN(S(=O)(=O)N4CC5CN(C(=O)CCc6cccc7c6n(C)c(=O)n7C6CCC(=O)NC6=O)CC5C4)CC3)nc21 (stereo not shown)", "Met"],
  ["CC1CCCC1N1C(=O)C2(CC2)c2cnc(NC3CCN(S(=O)(=O)N4CCC5(CCCN5C(=O)CCCc5ccc6c(c5)n(C)c(=O)n6C5CCC(=O)NC5=O)C4)CC3)nc21 (stereo not shown)", "Met"],
  ["C[C@@H]1CN(c2ccc3c(N4CCC(=O)NC4=O)nn(C)c3c2)CCN1[C@@H](C)c1cccc(S(=O)(=O)N2CC[C@H](Nc3ncc4c(n3)N([C@@H]3CCC[C@@H](O)C3)C(=O)C43CC3)[C@H](F)C2)c1", "Not met"],
  ["CC1CCCC1N1C(=O)C2(CC2)c2cnc(NC3CCN(S(=O)(=O)N4CCC5(CCN(C(=O)CCCc6ccc7c(c6)n(C)c(=O)n7C6CCC(=O)NC6=O)C5)C4)CC3)nc21 (stereo not shown)", "Met"],
  ["C[C@@H](C1CC1)N1C(=O)C2(CC2)c2cnc(NC3CCN(S(=O)(=O)c4cccc(CN5CCC(c6ccc7c(N8CCC(=O)NC8=O)nn(C)c7c6)CC5)c4)CC3)nc21", "Not met"],
  ["CC1CCCC1N1C(=O)C2(CC2)c2cnc(NC3CCN(S(=O)(=O)N4CC5(CN(C(=O)CCc6ccc7c(c6)n(C)c(=O)n7C6CCC(=O)NC6=O)C5)C4)CC3)nc21 (stereo not shown)", "Met"],
  ["CC1CCCC1N1C(=O)C2(CC2)c2cnc(NC3CCN(S(=O)(=O)N4CC5(CCCN(C(=O)CCCc6cccc7c6n(C)c(=O)n7C6CCC(=O)NC6=O)C5)C4)CC3)nc21 (stereo not shown)", "Met"]
]}

The reported measurements were obtained from patent US20260070917A1.
